Reference for the values: patent US6352985B1

assay-readout: melting point

## Input Identify measured melting point corresponding to Nc1nc2ccc(C(=O)NS(=O)(=O)c3ccccc3)cc2n1Cc1ccc(-c2ccccc2)cc1 [Compound (231)]
## Output 352.5 to 355 °C

## Input Identify measured melting point corresponding to Cc1nc2ccc(C(=O)NS(=O)(=O)c3ccc(Cl)cc3)cc2n1Cc1ccccc1Cl.[Na]
## Output 360 to 362 °C (dec.)

## Input Identify measured melting point corresponding to CCCCS(=O)(=O)NC(=O)c1ccc2nc(O)n(Cc3ccc(Cl)cc3Cl)c2c1 [Compound (379)]
## Output 254 to 256 °C

## Input Identify measured melting point corresponding to Cc1ccc(C)c(S(=O)(=O)NC(=O)c2ccc3nc(C)n(Cc4ccccc4Cl)c3c2)c1 [Compound (219)]
## Output 266.5 to 267.5 °C

* * *

Provide the reported melting point of each item.

## Input Identify measured melting point corresponding to CCCc1nc2ccc(C(=O)NS(=O)(=O)c3ccccc3)cc2n1Cc1ccc(-c2ccccc2)cc1.[K]
## Output 279 to 282 °C

## Input Identify measured melting point corresponding to Cc1nc2ccc(C(=O)NS(=O)(=O)Cc3ccccc3)cc2n1Cc1ccccc1Cl
## Output 193 to 196 °C

## Input Identify measured melting point corresponding to Cc1nc2ccc(C(=O)NS(=O)(=O)c3cccc4cccnc34)cc2n1Cc1ccccc1Cl.[Na]
## Output 348 to 352 °C (dec.)

## Input Identify measured melting point corresponding to CNc1nc2ccc(C(=O)NS(=O)(=O)c3ccccc3)cc2n1Cc1ccc(-c2ccccc2)cc1
## Output 225 to 228 °C

* * *

assay-readout: melting point

## Input Identify measured melting point corresponding to Cc1nc2ccc(C(=O)NS(=O)(=O)c3ccccc3)cc2n1Cc1ccccc1Cl
## Output 273.5 to 274.3 °C

## Input Identify measured melting point corresponding to Cc1nc2ccc(C(=O)NS(=O)(=O)c3ccc(C(F)(F)F)cc3)cc2n1Cc1ccccc1Cl
## Output 288 to 292 °C

## Input Identify measured melting point corresponding to O=C(NS(=O)(=O)c1ccccc1)c1ccc2nc(C3CC3)n(Cc3ccc(-c4ccccc4)cc3)c2c1.[K]
## Output 220.8 to 224.8 °C

## Input Identify measured melting point corresponding to COc1ccc(S(=O)(=O)NC(=O)c2ccc3nc(C)n(Cc4ccccc4Cl)c3c2)cc1
## Output 271 to 274 °C

## Input Identify measured melting point corresponding to CC(C)c1nc2ccc(C(=O)NS(=O)(=O)c3ccccc3)cc2n1Cc1ccc(-c2ccccc2)cc1.[K]
## Output 310.1 to 312.7 °C

## Input Identify measured melting point corresponding to Cc1nc2ccc(C(=O)NS(=O)(=O)c3ccc4ccccc4c3)cc2n1Cc1ccccc1Cl.[Na]
## Output 352 to 354.5 °C

## Input Identify measured melting point corresponding to Cc1nc2ccc(C(=O)NS(=O)(=O)c3cccc(Cl)c3)cc2n1Cc1ccccc1Cl
## Output 254.5 to 257.5 °C (dec.)

## Input Identify measured melting point corresponding to Cc1nc2ccc(C(=O)NS(=O)(=O)C(F)(F)F)cc2n1Cc1ccccc1Cl.Cl
## Output 332 to 335 °C (dec.)

* * *

assay-readout: melting point

## Input Identify measured melting point corresponding to Cc1nc2ccc(C=CC(=O)NS(=O)(=O)c3ccccc3)cc2n1Cc1ccccc1Cl
## Output 243.1 to 244.3 °C

## Input Identify measured melting point corresponding to Cc1nc2ccc(CCC(=O)NS(=O)(=O)c3ccccc3)cc2n1Cc1ccccc1Cl
## Output 229.8 to 233 °C

## Input Identify measured melting point corresponding to Cc1nc2ccc(C(=O)NS(=O)(=O)c3ccccc3Cl)cc2n1Cc1ccccc1Cl.N
## Output 264 to 267 °C

## Input Identify measured melting point corresponding to Cc1nc2ccc(C(=O)NS(=O)(=O)c3ccc(C(C)(C)C)cc3)cc2n1Cc1ccccc1Cl.[Na]
## Output 359.5 to 362 °C

## Input Identify measured melting point corresponding to Cc1nc2ccc(C(=O)NS(=O)(=O)c3ccc([N+](=O)[O-])cc3)cc2n1Cc1ccccc1Cl
## Output 330 to 332 °C

## Input Identify measured melting point corresponding to CCCCS(=O)(=O)NC(=O)c1ccc2nc(C)n(Cc3ccc(C(=O)c4ccccc4)cc3)c2c1
## Output 111 to 112.4 °C
